molecular target: Cannabinoid Receptor 2 (CB2R) (Homo sapiens); assay: CB2R radioligand assay on membranes from HEK293 cells over-expressing human recombinant CB2
Sequence (P34972 whole entry): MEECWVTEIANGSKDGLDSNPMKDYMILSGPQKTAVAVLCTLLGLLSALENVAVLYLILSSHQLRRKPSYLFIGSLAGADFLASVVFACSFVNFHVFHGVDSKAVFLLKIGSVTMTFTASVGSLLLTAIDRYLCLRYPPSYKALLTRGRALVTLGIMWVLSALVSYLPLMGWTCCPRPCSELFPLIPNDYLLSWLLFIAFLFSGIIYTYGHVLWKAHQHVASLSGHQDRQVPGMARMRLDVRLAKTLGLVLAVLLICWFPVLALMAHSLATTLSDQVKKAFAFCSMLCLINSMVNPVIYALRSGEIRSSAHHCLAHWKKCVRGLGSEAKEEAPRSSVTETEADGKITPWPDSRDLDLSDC

Molecule	System Tested	EC50, µM
O=C(CNc1cccc2ccccc12)N/N=C1\C(=O)N(CCc2ccccc2)c2ccccc21 [Example 1]	Cannabinoid Receptor 2 (CB2R) (Homo sapiens)	21.1

====

target: Cannabinoid Receptor 1 (CB1R) (Homo sapiens, UniProt P21554); assay: CB1R radioligand assay on membranes from HEK293 cells over-expressing human recombinant CB1; settings: human recombinant CB1, [3H]CP-55,490 radioligand, n=3
Sequence (P21554 whole entry): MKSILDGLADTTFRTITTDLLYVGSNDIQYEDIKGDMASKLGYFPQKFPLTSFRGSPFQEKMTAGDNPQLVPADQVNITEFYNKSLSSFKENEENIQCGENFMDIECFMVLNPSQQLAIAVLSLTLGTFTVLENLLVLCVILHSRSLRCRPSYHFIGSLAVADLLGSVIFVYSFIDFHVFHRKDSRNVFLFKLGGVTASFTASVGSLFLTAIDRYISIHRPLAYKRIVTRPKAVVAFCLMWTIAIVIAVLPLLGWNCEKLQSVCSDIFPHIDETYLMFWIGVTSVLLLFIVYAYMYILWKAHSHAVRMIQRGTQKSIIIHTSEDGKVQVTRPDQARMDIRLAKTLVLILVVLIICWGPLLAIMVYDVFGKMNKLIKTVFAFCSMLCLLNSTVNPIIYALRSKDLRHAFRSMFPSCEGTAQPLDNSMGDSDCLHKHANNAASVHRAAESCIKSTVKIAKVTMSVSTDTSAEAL

Compound	EC50
O=C(CNc1cccc2ccccc12)N/N=C1\C(=O)N(CCc2ccccc2)c2ccccc21 [Example 1]	> 25 µM

Values from patent US7807707B2
